Attribution: PubChem BioAssay (EPA / NIEHS)

# assayDetails: STM_H9_OrnithineISnorm_perc: Stemina devTOX quickPredict H9 human embryonic stem cell (hESC)-based Assay for Ornithine (ORN) Metabolite Biomarker, Normalized (AID 2283712);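 also: ornithine released into spent medium during last day measured by mass spectrometry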
Calls of active or inactive are those of the source. The calls were made as follows: active = hit-call score of the fitted dose curve at least 0.9, where 1 is the maximum; inactive = score below 0.9.
Outcome codes: 1 (yes) = active, 0 (no) = inactive

>>> grouplabel("C=C(C)[C@H]1Cc2c(ccc3c2O[C@@H]2COc4cc(OC)c(OC)cc4[C@@H]2C3=O)O1")
"1 (yes)"
>>> grouplabel("CCOP(=S)(OCC)Oc1cc(C)nc(C(C)C)n1")
"1 (yes)"
>>> grouplabel("FC(F)C(F)(F)OCC(Cn1cncn1)c1ccc(Cl)cc1Cl (stereo not drawn)")
"0 (no)"
>>> grouplabel("CCC(=NOC/C=C/Cl)C1=C(O)CC(C2CCOCC2)CC1=O (stereo not drawn)")
"1 (yes)"
>>> grouplabel("O=[N+]([O-])c1cc(C(F)(F)F)c(Cl)c([N+](=O)[O-])c1Nc1ncc(C(F)(F)F)cc1Cl")
"1 (yes)"
>>> grouplabel("N#CSCSC#N")
"1 (yes)"
>>> grouplabel("COc1ccc(C(=CC(=O)N2CCOCC2)c2ccc(Cl)cc2)cc1OC")
"1 (yes)"
>>> grouplabel("CNc1cnn(-c2cccc(C(F)(F)F)c2)c(=O)c1Cl")
"0 (no)"
>>> grouplabel("CC(C1CC1)C(O)(Cn1cncn1)c1ccc(Cl)cc1 (stereo not drawn)")
"1 (yes)"
>>> grouplabel("CN(C)C(=O)Nc1cccc(C(F)(F)F)c1")
"0 (no)"
>>> grouplabel("C[N+]1(C)CCCCC1")
"0 (no)"
>>> grouplabel("CCCCOC(=O)[C@@H](C)Oc1ccc(Oc2ccc(C#N)cc2F)cc1")
"1 (yes)"
>>> grouplabel("CC1=NNC(=O)N(/N=C/c2cccnc2)C1")
"0 (no)"

###

# Read-out: Monokine induced gamma interferon (MIG), CXCL9 (gene 4283)
# assayDetails: BSK_BE3C_MIG: BioMAP Diversity Plus: BE3C Assay for Monokine induced gamma interferon (MIG) Biomarker Activity (AID 2283035)
# appliedConditions: primary human bronchial epithelial cells; actives raise or lower the signal
Active and inactive are the calls of the source. Rule for the calls: active = hit-call score of the fitted dose curve at least 0.9, where 1 is the maximum; inactive = score below 0.9.
Outcomes: Y for active, N for inactive

>>> grouplabel("CCC(=O)Nc1ccc(Cl)c(Cl)c1")
"N"
>>> grouplabel("COP(=O)(OC)C(O)C(Cl)(Cl)Cl (stereo not given)")
"N"
>>> grouplabel("O=C(O)c1cc(Oc2ccc(C(F)(F)F)cc2Cl)ccc1[N+](=O)[O-]")
"N"
>>> grouplabel("CCOP(=S)(OCC)SCCSCC")
"N"
>>> grouplabel("C#CC(C)(C)NC(=O)c1cc(Cl)cc(Cl)c1")
"N"
>>> grouplabel("CCCCN(CC)c1c([N+](=O)[O-])cc(C(F)(F)F)cc1[N+](=O)[O-]")
"N"
>>> grouplabel("C[Si](Cn1cncn1)(c1ccc(F)cc1)c1ccc(F)cc1")
"N"
>>> grouplabel("CCOP(=O)(SC(C)CC)N1CCSC1=O (stereo not given)")
"N"
>>> grouplabel("COP(=O)(OC)OC(Br)C(Cl)(Cl)Br (stereo not given)")
"Y"
>>> grouplabel("CCOP(=O)(NC(C)C)Oc1ccc(SC)c(C)c1 (stereo not given)")
"N"
>>> grouplabel("CCNc1nc(Cl)nc(NC(C)(C)C#N)n1")
"N"
>>> grouplabel("CCc1cccc(CC)c1N(COC)C(=O)CCl")
"N"
>>> grouplabel("CCCCOC(=O)c1ccccc1C(=O)O")
"N"
>>> grouplabel("CC[C@H](C)[C@H]1O[C@]2(C=C[C@@H]1C)C[C@@H]1C[C@@H](C/C=C(\\C)[C@@H](O[C@H]3C[C@H](OC)[C@@H](O[C@H]4C[C@H](OC)[C@@H](NC)[C@H](C)O4)[C@H](C)O3)[C@@H](C)/C=C/C=C3\\CO[C@@H]4[C@H](O)C(C)=C[C@@H](C(=O)O1)[C@]34O)O2")
"Y"
>>> grouplabel("CC(C1CC1)C(O)(Cn1cncn1)c1ccc(Cl)cc1 (stereo not given)")
"N"
>>> grouplabel("C=C(C)[C@H]1Cc2c(ccc3c2O[C@@H]2COc4cc(OC)c(OC)cc4[C@@H]2C3=O)O1")
"N"
>>> grouplabel("CNc1cnn(-c2cccc(C(F)(F)F)c2)c(=O)c1Cl")
"N"
>>> grouplabel("CNC(=O)ON=C(SC)C(=O)N(C)C")
"N"
>>> grouplabel("CC1=NNC(=O)N(/N=C/c2cccnc2)C1")
"N"
>>> grouplabel("S=C1NCCN1")
"N"
>>> grouplabel("CC(Oc1cccc(Cl)c1)C(=O)O (stereo not given)")
"N"
>>> grouplabel("CCCSP(=O)(OCC)SCCC")
"N"
>>> grouplabel("CC1(C(=O)Nc2ccc(O)c(Cl)c2Cl)CCCCC1")
"N"
>>> grouplabel("CCCCSP(=O)(SCCCC)SCCCC")
"N"
>>> grouplabel("COP(=O)(OC)SCn1c(=O)oc2cc(Cl)cnc21")
"N"

###

# Read-out: Monokine induced gamma interferon (MIG), CXCL9 (gene 4283)
# assayDetails: BSK_3C_MIG: BioMAP Diversity Plus: 3C Assay for Monokine induced gamma interferon (MIG) Biomarker Activity (AID 2283021)
# appliedConditions: primary human endothelial cells (HUVEC); actives raise or lower the signal
Activity calls are given as the source filed them. How the source made its calls: active means hit-call score of the fitted dose curve at least 0.9, where 1 is the maximum; inactive means score below 0.9.
Outcomes: active, inactive

>>> grouplabel("CCOP(=S)(Oc1cnc(C(C)(C)C)nc1)OC(C)C (centres undefined)")
"active"
>>> grouplabel("CCOC(=O)CC(SP(=O)(OC)OC)C(=O)OCC (centres undefined)")
"inactive"
>>> grouplabel("O=C(O)c1cc(Oc2ccc(C(F)(F)F)cc2Cl)ccc1[N+](=O)[O-]")
"inactive"
>>> grouplabel("CCCCN(CC)c1c([N+](=O)[O-])cc(C(F)(F)F)cc1[N+](=O)[O-]")
"inactive"
>>> grouplabel("CNC(=O)Oc1cccc2c1OC(C)(C)O2")
"inactive"
>>> grouplabel("S=C1NCCN1")
"inactive"
>>> grouplabel("CCOP(=S)(OCC)Oc1ccc2c(C)c(Cl)c(=O)oc2c1")
"inactive"
>>> grouplabel("CC(Oc1cccc(Cl)c1)C(=O)O (centres undefined)")
"inactive"
>>> grouplabel("CCc1cccc(C)c1N(C(=O)CCl)C(C)COC (centres undefined)")
"inactive"
>>> grouplabel("CCC(=O)Nc1ccc(Cl)c(Cl)c1")
"inactive"
>>> grouplabel("CC[C@H](C)[C@H]1O[C@]2(C=C[C@@H]1C)C[C@@H]1C[C@@H](C/C=C(\\C)[C@@H](O[C@H]3C[C@H](OC)[C@@H](O[C@H]4C[C@H](OC)[C@@H](NC)[C@H](C)O4)[C@H](C)O3)[C@@H](C)/C=C/C=C3\\CO[C@@H]4[C@H](O)C(C)=C[C@@H](C(=O)O1)[C@]34O)O2")
"active"
>>> grouplabel("CCCSP(=O)(OCC)SCCC")
"inactive"
>>> grouplabel("COP(=O)(NC(C)=O)SC (centres undefined)")
"inactive"
>>> grouplabel("CNc1cnn(-c2cccc(C(F)(F)F)c2)c(=O)c1Cl")
"inactive"
>>> grouplabel("CSc1nc(NC(C)C)nc(NC(C)C)n1")
"inactive"
>>> grouplabel("COc1cc(OC)nc(Sc2cccc(Cl)c2C(=O)O)n1")
"inactive"
>>> grouplabel("CSc1nnc(C(C)(C)C)c(=O)n1N")
"inactive"
>>> grouplabel("Nc1nc(N)nc(NC2CC2)n1")
"inactive"
>>> grouplabel("CCOP(=O)(SC(C)CC)N1CCSC1=O (centres undefined)")
"inactive"
>>> grouplabel("CCOP(=S)(OCC)Oc1ccc([N+](=O)[O-])cc1")
"inactive"
>>> grouplabel("CC(COc1ccc(Oc2ccccc2)cc1)Oc1ccccn1 (centres undefined)")
"inactive"
>>> grouplabel("CCCCOC(=O)[C@@H](C)Oc1ccc(Oc2ccc(C#N)cc2F)cc1")
"inactive"
>>> grouplabel("CC1(C(=O)Nc2ccc(O)c(Cl)c2Cl)CCCCC1")
"inactive"
>>> grouplabel("CCOC(=O)COc1cc(-c2nn(C)c(OC(F)F)c2Cl)c(F)cc1Cl")
"inactive"

###

# assayDetails: IUF_NPC2b_neuronal_migration_120hr: Leibniz Research Institute for Environmental Medicine (IUF) 120-hour Neural Progenitor Cell Migration Assay for Neuron Migration (NPC2b) (AID 2284300)
Calls of active or inactive are those of the source. How the source made its calls: active means hit-call score of the fitted dose curve at least 0.9, where 1 is the maximum; inactive means score below 0.9.
Labels: class 1 (active), class 0 (inactive)

>>> grouplabel("S=C1NCCN1")
"class 0"
>>> grouplabel("CC1=NNC(=O)N(/N=C/c2cccnc2)C1")
"class 0"
>>> grouplabel("CCCSP(=O)(OCC)SCCC")
"class 0"
>>> grouplabel("CCCCSP(=O)(SCCCC)SCCCC")
"class 0"
>>> grouplabel("CSC1=N[C@@](C)(c2ccccc2)C(=O)N1Nc1ccccc1")
"class 0"
>>> grouplabel("CC(=NC#N)N(C)Cc1ccc(Cl)nc1")
"class 0"
>>> grouplabel("CCOP(=O)(NC(C)C)Oc1ccc(SC)c(C)c1 (stereo unspecified)")
"class 0"
>>> grouplabel("COP(=O)(OC)OC(Br)C(Cl)(Cl)Br (stereo unspecified)")
"class 1"
>>> grouplabel("C[N+]1(C)CCCCC1")
"class 0"
>>> grouplabel("CCOC(=O)CC(SP(=O)(OC)OC)C(=O)OCC (stereo unspecified)")
"class 0"
>>> grouplabel("CCOP(=S)(OCC)OC(Cl)C(Cl)(Cl)Cl (stereo unspecified)")
"class 0"
>>> grouplabel("COP(=O)(OC)C(O)C(Cl)(Cl)Cl (stereo unspecified)")
"class 0"
>>> grouplabel("CCOP(=O)(OCC)Oc1cc(C)nc(C(C)C)n1")
"class 0"
>>> grouplabel("CON=C(C(=O)OC)c1ccccc1CON=C(C)c1cccc(C(F)(F)F)c1")
"class 0"
>>> grouplabel("CCOP(=S)(OCC)SCCSCC")
"class 0"
>>> grouplabel("CC(C)N(C(=O)SCC(Cl)=C(Cl)Cl)C(C)C")
"class 0"
